# target of assay: T1, Human glypican-3 on cells (Huh7, Hep3B, H446, Hep3B xenograft tissue) (human, UniProt P51654 25-554)
# T1 construct: Endogenous GPC3 of human tumour cell lines; also called huGPC3 on cells; GPC3 receptor
# T1 sequence (P51654 25-554 limits assumed): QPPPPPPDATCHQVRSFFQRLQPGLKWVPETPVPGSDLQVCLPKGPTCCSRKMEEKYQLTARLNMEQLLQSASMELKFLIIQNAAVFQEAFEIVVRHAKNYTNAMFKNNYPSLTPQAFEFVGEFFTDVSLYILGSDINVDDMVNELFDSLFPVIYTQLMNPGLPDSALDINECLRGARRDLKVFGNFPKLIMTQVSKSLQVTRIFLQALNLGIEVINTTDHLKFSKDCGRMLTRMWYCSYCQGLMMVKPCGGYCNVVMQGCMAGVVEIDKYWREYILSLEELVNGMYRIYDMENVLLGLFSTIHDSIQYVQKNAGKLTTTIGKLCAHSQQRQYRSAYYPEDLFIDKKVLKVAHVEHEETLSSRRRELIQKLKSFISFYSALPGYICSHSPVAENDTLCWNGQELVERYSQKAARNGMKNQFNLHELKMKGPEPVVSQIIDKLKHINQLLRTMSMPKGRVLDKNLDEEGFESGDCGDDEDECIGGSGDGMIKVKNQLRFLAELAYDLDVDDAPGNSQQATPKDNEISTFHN
# test description: flow cytometry on Huh7 cells
quantity kind: huGPC3 on cells EC50 (mutant/parent) (fold)

binder | quantity kind | display unit | reading
ADX_6077_F02 DG→DS mutant, alkylated (designed binder, C-terminal cysteine alkylated, also called P1-055667) GVSDVPRDLEVVAATPTSLLISWSDDYHAHRYYRITYGETGGNSPVQEFTVPGEHVTATISGLKPGVDYTITVYAVTYDSEKAATDWSISINYRTPC | huGPC3 on cells EC50 (mutant/parent) | fold | 1.4
ADX_6077_F02 DG→DL mutant, alkylated (designed binder, C-terminal cysteine alkylated, also called P1-055671) GVSDVPRDLEVVAATPTSLLISWSDDYHAHRYYRITYGETGGNSPVQEFTVPGEHVTATISGLKPGVDYTITVYAVTYDLEKAATDWSISINYRTPC | huGPC3 on cells EC50 (mutant/parent) | fold | 1.7
ADX_6077_F02 DG→EG mutant, alkylated (designed binder, C-terminal cysteine alkylated, also called P1-055673) GVSDVPRDLEVVAATPTSLLISWSDDYHAHRYYRITYGETGGNSPVQEFTVPGEHVTATISGLKPGVDYTITVYAVTYEGEKAATDWSISINYRTPC | huGPC3 on cells EC50 (mutant/parent) | fold | 1.6
ADX_6077_F02 DG→AG mutant, alkylated (designed binder, C-terminal cysteine alkylated, also called P1-055669) GVSDVPRDLEVVAATPTSLLISWSDDYHAHRYYRITYGETGGNSPVQEFTVPGEHVTATISGLKPGVDYTITVYAVTYAGEKAATDWSISINYRTPC | huGPC3 on cells EC50 (mutant/parent) | fold | 1.1
ADX_6077_F02 DG→DA mutant, alkylated (designed binder, C-terminal cysteine alkylated, also called P1-055660; PI-055660) GVSDVPRDLEVVAATPTSLLISWSDDYHAHRYYRITYGETGGNSPVQEFTVPGEHVTATISGLKPGVDYTITVYAVTYDAEKAATDWSISINYRTPC | huGPC3 on cells EC50 (mutant/parent) | fold | 1.3
ADX_6077_F02 DG→SG mutant, alkylated (designed binder, C-terminal cysteine alkylated, also called P1-055668) VSDVPRDLEVVAATPTSLLISWSDDYHAHRYYRITYGETGGNSPVQEFTVPGEHVTATISGLKPGVDYTITVYAVTYSGEKAATDWSISINYRTPC | huGPC3 on cells EC50 (mutant/parent) | fold | 1.1
